In this section, each of the compounds is paired with its reported IC50.
target: MMP-14 (MT1-MMP) catalytic domain (Homo sapiens (Human), UniProt P50281); assay: In vitro fluorescence assay of MMP-14 activity; type: biochemical; settings: read-out: MMP14 IC50
Kindly provide the numeric value in µM only, without the unit symbol.

{"Compound": "CC[C@H](Cc1ccc(C(F)(F)F)cc1)C(=O)NC[C@@]1(C2CC2)NC(=O)NC1=O [Example 2]", "Quantity Unit": "µM", "IC50": 7.99}

Q. Determine from records and report IC50 for O=C1NC(=O)[C@](CNC(=O)[C@@H](Cc2ccc(C(F)(F)F)cc2)C2CC2)(C2CC2)N1 [Example 3]
A. 50.2

Reference source: patent US9206139B2
